biological target: POU1 (OCT1 POU domain) (human, UniProt P14859 260-458); test: EMSA-SELEX-seq; no BOB1; 20 mM Tris-HCl pH 7.6, 140 mM NaCl, 10% glycerol, 0.5 mM EDTA, 0.05% Triton X-100, 0.1 mg/mL BSA, 0.1 mg/mL poly(dI-dC), 5 mM DTT, room temperature, 20 min; high values mean tight binding; details: protein: recombinant; dsDNA, one strand shown
Sequence (P14859 260-458): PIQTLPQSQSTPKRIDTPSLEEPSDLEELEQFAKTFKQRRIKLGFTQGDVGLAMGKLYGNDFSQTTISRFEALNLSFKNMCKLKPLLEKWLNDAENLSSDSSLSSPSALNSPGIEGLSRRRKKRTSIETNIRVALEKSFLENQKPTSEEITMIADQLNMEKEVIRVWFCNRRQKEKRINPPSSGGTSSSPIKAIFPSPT
# binding signal per record follows

Worked examples follow.
AGTAGAAT	0.0717 % of ANNNNAAN 8-mers
ACTCAAAC	0.0187 % of ANNNNAAN 8-mers
AAACAAAA	0.156 % of ANNNNAAN 8-mers
AATTGAAA	0.113 % of ANNNNAAN 8-mers

Q. What value of binding signal has been recorded for this entry: ACCCTAAC
A. 0.0107 % of ANNNNAAN 8-mers

Q. AGTATAAT ?
A. 0.192 % of ANNNNAAN 8-mers

Q. Field entry: ATGTCAAA
A. 0.0744 % of ANNNNAAN 8-mers

Q. Now the sequence AAAAGAAA
A. 0.106 % of ANNNNAAN 8-mers
